assay: pKa determination from fluorescence intensity as a function of pH; conditions: 30 vol% methanol / 70 vol% phosphate buffer, pH 6
We begin with a simple list: items and their reported pKa.
value_type: pKa

compound	value_type	result
CCCCCCCCCCCCCCCCCCCCN=c1ccc2c(-c3ccccc3C(=O)O)c3ccc(N(CC)CC)cc3oc-2c1 [Beispiel A5]	pKa	10.3
CCCCCCCCCCCCCCCCCCCCNc1ccc2cc3ccc(NCCCCCCCCCCCCCCCCCCCC)cc3nc2c1 [Beispiel A2, 3,6-Bis(n-eicosylamino)-acridin]	pKa	11.1
CCCCCCC(=O)Nc1ccc2cc3ccc(NC(=O)CCCCCC)cc3nc2c1	pKa	10
CCCCCCCCNc1ccc2cc3ccc(NCCCCCCCC)cc3nc2c1 [Beispiel A1, 3,6-Bis(n-octylamino)-acridin]	pKa	10

###

assay: Fluorescence change between protonated and deprotonated form of the fluorophore; assay type: physicochemical; conditions: in Tetrahydrofuran, pH set with 1 M HCl or 1,0 M NaOH, fluorophore 10⁻⁷ mol/l
Rule: Änderung Fluoreszenzintensität below 40 Prozent gives criterion met, anything at or above gives criterion not met.

chem_smiles	category
CCCCCCCCNc1ccc2cc3ccc(NCCCCCCCC)cc3nc2c1	criterion not met
CCCCCCCCCCCCCCCCCC(=O)N=c1ccc2c(-c3ccccc3C(=O)O)c3ccc(N(CC)CC)cc3oc-2c1	criterion met
CCCCCCCCCCCCCCCCCCCCN=c1ccc2c(-c3ccccc3C(=O)O)c3ccc(N(CC)CC)cc3oc-2c1	criterion met
CCCCCCC(=O)Nc1ccc2cc3ccc(NC(=O)CCCCCC)cc3nc2c1	criterion met
CCCCCCCCN=c1ccc2c(-c3ccccc3C(=O)O)c3ccc(NCCCCCCCC)cc3oc-2c1	criterion met
